- assay.method.text: Selectivity index, ratio of CC50 for human HepG2 cells to IC50 for trypomastigote stage of Trypanosoma brucei brucei AnTat 1.9
- Type: toxicity
- recorded.conditions: read-out: Ratio CC50/IC50
reported.endpoint: selectivity ratio

Please look up its selectivity ratio: O=[N+]([O-])c1c(CS(=O)(=O)c2ccccc2)nc2c(-c3ccc(O)cc3)cc(Cl)cn12
> 30.5

Please look up its selectivity ratio: CCN(CC)c1ccc(-c2cc(Cl)cn3c([N+](=O)[O-])c(CS(=O)(=O)c4ccccc4)nc23)cc1
> 36.3

Please look up its selectivity ratio: O=[N+]([O-])c1c(CS(=O)(=O)c2ccccc2)nc2c(Br)cc(Br)cn12
> 10.7

Please look up its selectivity ratio: O=[N+]([O-])c1c(CS(=O)(=O)c2ccccc2)nc2c(-c3ccc(CO)cc3)cc(Cl)cn12
146

Please look up its selectivity ratio: O=[N+]([O-])c1c(CS(=O)(=O)c2ccccc2)nc2c(-c3cccc(C(F)(F)F)c3)cc(Cl)cn12
> 312

Please look up its selectivity ratio: CSc1ccc(OCc2ncc([N+](=O)[O-])n2C)cc1
> 333

Please look up its selectivity ratio: NCCC[C@](N)(C(=O)O)C(F)F [EFLORNITHINE, (S)-]
> 7.5
